# system.name: T1, recombinant human IL-23 (hrIL-23), produced at Centocor (human, UniProt P29460 23-328)
# T1 construct: p19-p40 heterodimer; also called rhIL-23; huIL-23
# T1 sequence 1: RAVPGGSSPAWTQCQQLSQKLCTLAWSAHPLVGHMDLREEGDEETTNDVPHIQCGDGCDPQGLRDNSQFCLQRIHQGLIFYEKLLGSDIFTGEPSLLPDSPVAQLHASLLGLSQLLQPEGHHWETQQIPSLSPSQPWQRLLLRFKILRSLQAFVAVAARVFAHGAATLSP
# T1 sequence 2: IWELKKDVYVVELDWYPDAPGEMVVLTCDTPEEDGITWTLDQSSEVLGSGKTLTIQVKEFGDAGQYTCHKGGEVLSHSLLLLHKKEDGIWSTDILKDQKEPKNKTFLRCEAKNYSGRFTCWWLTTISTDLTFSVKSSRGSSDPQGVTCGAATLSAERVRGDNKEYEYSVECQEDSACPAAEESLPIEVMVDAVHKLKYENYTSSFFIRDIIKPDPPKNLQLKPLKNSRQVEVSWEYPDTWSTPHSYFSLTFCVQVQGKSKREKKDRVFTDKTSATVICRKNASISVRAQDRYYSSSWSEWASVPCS
# assay.protocol: SET
endpoint.name: Kd (nM)
// units = nM; emit number, no label

// known answers, use as guide
binder: MOR05060 Fab (Fab, V domains shown, Fab) VH: QVQLVESGGGLVQPGGSLRLSCAASGFTFSSFGMSWVRQAPGKGLEWVSNISSSGSSTYYADSVKGRFTISRDNSKNTLYLQMNSLRAEDTAVYYCARYWGTPYLMQFDNWGQGTLVTVSS VL: DIALTQPASVSGSPGQSITISCTGTSSDVGGYNSVSWYQQHPGKAPKLMIYSVSSRPSGVSNRFSGSKSGNTASLTISGLQAEDEADYYCGSYDVYGRFYVFGGGTKLTVL
value: 0.142

binder: MOR05056 Fab (Fab, V domains shown, Fab) VH: QVQLVESGGGLVQPGGSLRLSCAASGFTFSSFGMSWVRQAPGKGLEWVSSIEHKYLSYATYYAAGVKGRFTISRDNSKNTLYLQMNSLRAEDTAVYYCARYWGTPYLMQFDNWGQGTLVTVSS VL: DIALTQPASVSGSPGQSITISCTGTSSDVGGYNSVSWYQQHPGKAPKLMIYSVSSRPSGVSNRFSGSKSGNTASLTISGLQAEDEADYYCSSYDTNKPLVVFGGGTKLTVL
value: 0.065

binder: MOR05053 Fab (Fab, V domains shown, Fab) VH: QVQLVESGGGLVQPGGSLRLSCAASGFTFSSFGMSWVRQAPGKGLEWVSNIEHKYTSYTTYYAASVKGRFTISRDNSKNTLYLQMNSLRAEDTAVYYCARYWGTPYLMQFDNWGQGTLVTVSS VL: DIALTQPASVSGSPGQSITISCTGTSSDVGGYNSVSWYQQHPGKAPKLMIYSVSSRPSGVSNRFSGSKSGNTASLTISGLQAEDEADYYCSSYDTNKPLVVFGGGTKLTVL
value: 0.027

Moving on to another binder below.
Data point: MOR05049 Fab (Fab, V domains shown, Fab) VH: QVQLVESGGGLVQPGGSLRLSCAASGFTFSSFGMSWVRQAPGKGLEWVSGIEHKYLSYTTHYAASVKGRFTISRDNSKNTLYLQMNSLRAEDTAVYYCARYWGTPYLMQFDNWGQGTLVTVSS VL: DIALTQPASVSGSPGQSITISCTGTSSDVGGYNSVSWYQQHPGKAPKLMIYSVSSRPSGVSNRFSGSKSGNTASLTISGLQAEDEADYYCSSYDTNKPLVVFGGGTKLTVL ; Kd = 0.007
